Tested on: Staphylococcus aureus
PROCEDURE_TEXT: Antibiofilm activity against methicillin-resistant Staphylococcus aureus assessed as inhibition of biofilm formation incubated for overnight by crystal violet staining based microtiter plate assay
Type: functional, organism-based
Non-standard residues stand in square brackets, D forms with d. Residues, ends and D or L forms follow the SMILES beside them. Agb = N=C(N)NCC[C@H](N)C(=O)O; Dab = NCC[C@H](N)C(=O)O
MEASURE: inhibition

COMPOUND | SYSTEM | VALUE
CC[C@H](C)[C@H](NC(=O)[C@H](CCCNC(=N)N)NC(=O)[C@H](CCN)NC(=O)[C@H](C)NC(=O)[C@@H](NC(=O)[C@@H](NC(=O)[C@H](CC(C)C)NC(=O)[C@H](CCCNC(=N)N)NC(=O)[C@@H](N)C(C)C)[C@@H](C)CC)C(C)C)C(=O)N[C@@H](Cc1c[nH]c2ccccc12)C(=O)N[C@@H](CCCNC(=N)N)C(=O)N[C@@H](CCCNC(=N)N)C(N)=O (H-VRLIVA[Dab]RIWRR-NH2) | Staphylococcus aureus | Dose-dependent effect
CC[C@H](C)[C@H](NC(=O)[C@H](CC(C)C)NC(=O)[C@H](CCCNC(=N)N)NC(=O)[C@@H](N)C(C)C)C(=O)N[C@H](C(=O)N[C@@H](C)C(=O)N[C@H](C(=O)N[C@@H](CCCNC(=N)N)C(=O)N[C@@H](CCNC(=N)N)C(=O)N[C@@H](Cc1c[nH]c2ccccc12)C(=O)N[C@@H](CCCNC(=N)N)C(=O)N[C@@H](CCCNC(=N)N)C(N)=O)C(C)C)C(C)C (H-VRLIVAVR[Agb]WRR-NH2) | Staphylococcus aureus | Dose-dependent effect
CC[C@H](C)[C@H](NC(=O)[C@H](CCCNC(=N)N)NC(=O)[C@H](CCNC(=N)N)NC(=O)[C@H](C)NC(=O)[C@@H](NC(=O)[C@@H](NC(=O)[C@H](CC(C)C)NC(=O)[C@H](CCCNC(=N)N)NC(=O)[C@@H](N)C(C)C)[C@@H](C)CC)C(C)C)C(=O)N[C@@H](Cc1c[nH]c2ccccc12)C(=O)N[C@@H](CCCNC(=N)N)C(=O)N[C@@H](CCCNC(=N)N)C(N)=O (H-VRLIVA[Agb]RIWRR-NH2) | Staphylococcus aureus | Dose-dependent effect

====

Tested on: PBMC
PROCEDURE_TEXT: Cytotoxicity against human PBMC assessed as decrease in cell viability at 10 to 40 uM incubated for overnight by LDH assay
Assay type: cell-based
Non-standard residues stand in square brackets, D forms with d. Residues, ends and D or L forms follow the SMILES beside them. Orn = NCCC[C@H](N)C(=O)O; Dap = NC[C@H](N)C(=O)O
MEASURE: Activity

COMPOUND | SYSTEM | VALUE
CC[C@H](C)[C@H](NC(=O)[C@H](CCCN)NC(=O)[C@@H](NC(=O)[C@H](CCCN)NC(=O)[C@@H](NC(=O)[C@@H](NC(=O)[C@H](CC(C)C)NC(=O)[C@H](CCCN)NC(=O)[C@@H](N)C(C)C)[C@@H](C)CC)C(C)C)C(C)C)C(=O)N[C@@H](Cc1c[nH]c2ccccc12)C(=O)N[C@@H](CCCN)C(=O)N[C@@H](CCCN)C(N)=O (H-V[Orn]LIV[Orn]V[Orn]IW[Orn][Orn]-NH2) | PBMC | Non-Toxic
CC[C@H](C)[C@H](NC(=O)[C@H](CN)NC(=O)[C@@H](NC(=O)[C@H](C)NC(=O)[C@@H](NC(=O)[C@@H](NC(=O)[C@H](CC(C)C)NC(=O)[C@H](CN)NC(=O)[C@@H](N)C(C)C)[C@@H](C)CC)C(C)C)C(C)C)C(=O)N[C@@H](Cc1c[nH]c2ccccc12)C(=O)N[C@@H](CN)C(=O)N[C@@H](CN)C(N)=O (H-V[Dap]LIVAV[Dap]IW[Dap][Dap]-NH2) | PBMC | Non-Toxic
CC[C@H](C)[C@H](NC(=O)[C@H](CCCN)NC(=O)[C@@H](NC(=O)[C@H](C)NC(=O)[C@@H](NC(=O)[C@@H](NC(=O)[C@H](CC(C)C)NC(=O)[C@H](CCCN)NC(=O)[C@@H](N)C(C)C)[C@@H](C)CC)C(C)C)C(C)C)C(=O)N[C@@H](Cc1c[nH]c2ccccc12)C(=O)N[C@@H](CCCN)C(=O)N[C@@H](CCCN)C(N)=O (H-V[Orn]LIVAV[Orn]IW[Orn][Orn]-NH2) | PBMC | Non-Toxic
